# Tested On: 5-hydroxytryptamine receptor 1A/1B/1D/1E/1F/2A/2B/2C/3A/3B/3C/3D/3E/4/5A/6/7
# Assay Text: Ability to displace [3H]5-HT binding to 5-hydroxytryptamine receptor using 1 uM LSD as masking ligand, activity is expressed as Kd.
Measurement Kind: Kd (nM)
Please state the figure in nM; there is no need to write the unit.

Item CSc1ccc2[nH]cc(CCN(C)C)c2c1 has what recorded Kd?
43

* * *

# Tested On: 5-hydroxytryptamine receptor 1A/1B/1D/1E/1F/2A/2B/2C/3A/3B/3C/3D/3E/4/5A/6/7
# Assay Text: Ability to displace [3H]5-HT binding from 5-hydroxytryptamine receptor site using 1 uM LSD as masking ligand
Measurement Kind: IC50 (µM)
Quick reminder: number only, in µM, skip the unit.

Tell me the measured IC50 of CC(C)N(CCc1c[nH]c2cc3c(cc12)OCO3)C(C)C , please.
933

* * *

# Tested On: 5-hydroxytryptamine receptor 1A/1B/1D/1E/1F/2A/2B/2C/3A/3B/3C/3D/3E/4/5A/6/7
# Assay Text: Ability to displace [3H]5-HT binding to 5-hydroxytryptamine receptor site using 1 uM LSD as masking ligand
Measurement Kind: pIC50
The quantity pIC50 is defined as the negative base-10 logarithm of the molar concentration.

Any idea what its pIC50 is? The compound is CSc1cccc2[nH]cc(CCN(C)C)c12
3.82
